systemUnderTest: hGIPR (Homo sapiens)
protocolDescription: Functional cAMP activity in the presence of 1% HSA
Type: cell-based
assaySetup: read-out: cAMP Rel EC50, hGIPR
pEC50: −log10 of the molar value. Starred links: 1 amine or outer side, 2 acyl side, 3 side chain; linkers in the order of their positions; H or OH if unused. Non-standard residues stand in square brackets, D forms with d. Groups on a side chain read outwards from the residue. *: point of attachment. C18 diacid = O=C(O)CCCCCCCCCCCCCCCCC(=O)*; αMePhe(2-F) = C[C@](N)(Cc1ccccc1F)C(=O)O; γGlu = O=C(O)[C@H](CCC(=O)[*:2])N[*:1]; αMe4Pal = C[C@](N)(Cc1ccncc1)C(=O)O; αMeY = C[C@](N)(Cc1ccc(O)cc1)C(=O)O; 4Pal = N[C@@H](Cc1ccncc1)C(=O)O; αMeL = CC(C)C[C@](C)(N)C(=O)O; αMeS = C[C@](N)(CO)C(=O)O; Orn = NCCC[C@H](N)C(=O)O; AEEA = NCCOCCOCC(=O)O; Aib = CC(C)(N)C(=O)O

| substance | systemUnderTest | pEC50 |
| --- | --- | --- |
| H-Y[Aib]QGT[αMePhe(2-F)]TSD[4Pal][αMeS]I[αMeL]LD[Orn]K([AEEA-γGlu-C18 diacid])AQ[αMe4Pal]EFI[dE][αMeY]LIEGGPSSGAPPPSGGGE-NH2 [Example 741] | hGIPR (Homo sapiens) | 9.09 |
| H-Y[Aib]QGTFTSD[4Pal]S[Orn][αMeL]LDKK([γGlu-γGlu-C18 diacid])AQ[αMe4Pal]AFIE[αMeY]LIEGGPSSGAPPPSGSEE-NH2 [Example 967] | hGIPR (Homo sapiens) | 7.40 |
| H-Y[Aib]QGTFTSDFS[Orn][αMeL]LDKK([AEEA-γGlu-C18 diacid])AQ[Aib]AFIEYLLAGGPSSGAPPPSGT-NH2 [Example 87] | hGIPR (Homo sapiens) | 7.89 |
| H-Y[Aib]QGTFTSD[4Pal]SR[αMeL]LDKK([AEEA-γGlu-C18 diacid])AQ[αMe4Pal]AFIEYLIE[Aib]GESSGAPPPSGE-NH2 [Example 225] | hGIPR (Homo sapiens) | 7.40 |
| H-Y[Aib]QGT[αMePhe(2-F)]TSD[4Pal][αMeS]I[αMeL]LD[Orn]K([γGlu-γGlu-C18 diacid])AQ[αMe4Pal]EFI[dE][αMeY]LIEGGPSSGAPPPSGGGE-NH2 [Example 743] | hGIPR (Homo sapiens) | 9.36 |

---

systemUnderTest: hGIPR (Homo sapiens, UniProt P48546)
Sequence (P48546 22-466): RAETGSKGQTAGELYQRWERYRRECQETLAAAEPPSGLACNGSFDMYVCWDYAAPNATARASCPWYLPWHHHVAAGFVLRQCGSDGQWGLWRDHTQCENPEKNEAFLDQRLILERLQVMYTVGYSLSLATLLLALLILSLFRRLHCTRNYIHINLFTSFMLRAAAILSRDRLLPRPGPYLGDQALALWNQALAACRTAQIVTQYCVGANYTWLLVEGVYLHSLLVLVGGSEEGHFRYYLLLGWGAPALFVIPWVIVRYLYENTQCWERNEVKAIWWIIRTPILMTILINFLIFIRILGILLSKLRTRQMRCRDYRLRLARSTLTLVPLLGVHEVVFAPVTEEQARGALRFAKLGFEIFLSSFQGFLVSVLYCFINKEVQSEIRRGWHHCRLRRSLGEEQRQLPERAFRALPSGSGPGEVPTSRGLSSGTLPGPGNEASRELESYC
protocolDescription: Functional cAMP activity in the presence of 1% HSA
Assay type: cell-based
assaySetup: HEK-293 clonal cell line, 1% HSA, geometric mean of relative EC50; read-out: cAMP Rel EC50, hGIPR
pEC50: −log10 of the molar value. Starred links: 1 amine or outer side, 2 acyl side, 3 side chain; linkers in the order of their positions; H or OH if unused. Non-standard residues stand in square brackets, D forms with d. Groups on a side chain read outwards from the residue. No end group written: not given here. *: point of attachment. C18 diacid = O=C(O)CCCCCCCCCCCCCCCCC(=O)*; αMePhe(2-F) = C[C@](N)(Cc1ccccc1F)C(=O)O; γGlu = O=C(O)[C@H](CCC(=O)[*:2])N[*:1]; αMe4Pal = C[C@](N)(Cc1ccncc1)C(=O)O; αMeY = C[C@](N)(Cc1ccc(O)cc1)C(=O)O; 4Pal = N[C@@H](Cc1ccncc1)C(=O)O; αMeL = CC(C)C[C@](C)(N)C(=O)O; αMeS = C[C@](N)(CO)C(=O)O; Orn = NCCC[C@H](N)C(=O)O; AEEA = NCCOCCOCC(=O)O; Aib = CC(C)(N)C(=O)O
# pEC50 per entry

| substance | systemUnderTest | pEC50 |
| --- | --- | --- |
| H-Y[Aib]QGT[αMePhe(2-F)]TSD[4Pal]SI[αMeL]LDKK([γGlu-γGlu-C18 diacid])AQ[Aib]AFIEYLQEGGPSSGEPPPSGSEE-NH2 [Example 634] | hGIPR (Homo sapiens, UniProt P48546) | 8.83 |
| H-Y[Aib]QGT[αMePhe(2-F)]TSD[4Pal]SI[αMeL]LDKK([γGlu-γGlu-C18 diacid])AQ[Aib][Orn]FIEYLEEGGPSSGEPPPSGSEE-NH2 [Example 635] | hGIPR (Homo sapiens, UniProt P48546) | 8.57 |
| H-Y[Aib]QGT[αMePhe(2-F)]TSD[4Pal]SI[αMeL]LDKK([γGlu-γGlu-C18 diacid])AQ[Aib][Orn]FIEYLSEGGPSSGEPPPEGSEE-NH2 [Example 651] | hGIPR (Homo sapiens, UniProt P48546) | 8.20 |
| Y[Aib]QGT[αMePhe(2-F)]TSD[4Pal]SI[αMeL]LD[Orn]K([AEEA-γGlu-C18 diacid])AQ[αMe4Pal][Orn]FI[dE][αMeY]LIEGGPSSGEPPPEGEG[dE]-NH2 [Example 692] | hGIPR (Homo sapiens, UniProt P48546) | 8.90 |
| Y[Aib]QGT[αMePhe(2-F)]TSD[4Pal][αMeS]I[αMeL]LD[Orn]K([AEEA-γGlu-C18 diacid])AA[Aib]EFI[dE][αMeY]LIEGGPSSGEPPPSGTE-NH2 [Example 719] | hGIPR (Homo sapiens, UniProt P48546) | 9.05 |
| H-Y[Aib]QGT[αMePhe(2-F)]TSD[4Pal]SI[αMeL]LDKK([γGlu-γGlu-C18 diacid])AQ[Aib][Orn]FIEYLAEGGPSSGEPPPEGSEE-NH2 [Example 650] | hGIPR (Homo sapiens, UniProt P48546) | 8.51 |
